TEST_TARGET: human GLP-1R receptor (Homo sapiens, UniProt P43220)
Sequence (P43220 24-463): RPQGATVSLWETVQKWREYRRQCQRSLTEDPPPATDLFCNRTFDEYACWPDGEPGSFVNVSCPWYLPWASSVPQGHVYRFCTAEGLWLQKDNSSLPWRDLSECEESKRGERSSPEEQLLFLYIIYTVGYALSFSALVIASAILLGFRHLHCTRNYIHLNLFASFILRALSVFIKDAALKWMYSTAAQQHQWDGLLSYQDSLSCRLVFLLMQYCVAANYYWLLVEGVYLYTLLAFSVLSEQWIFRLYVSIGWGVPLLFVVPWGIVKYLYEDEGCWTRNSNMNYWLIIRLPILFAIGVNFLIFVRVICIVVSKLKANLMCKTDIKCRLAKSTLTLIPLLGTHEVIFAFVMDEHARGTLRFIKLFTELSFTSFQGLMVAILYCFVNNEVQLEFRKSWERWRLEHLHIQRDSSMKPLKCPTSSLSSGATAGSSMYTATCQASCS
PROCEDURE_TEXT: GLP-1R low expression cell assay (cAMP TR-FRET, CHO-K1_hGLP-1Rlow_clone10 cells)
MEASUREMENT_CONTEXT: cAMP TR-FRET, 30 min at 25° C.
# key: entry, value: EC50

# annotated cases, reported EC50 shown
## Input Which EC50 is reported with human GLP-1R receptor (Homo sapiens, UniProt P43220) for this entry: Cn1c(CN2CCC(c3cccc(OCc4ccc(Cl)cc4F)n3)CC2)nc2c(Cl)cc(C(=O)O)cc21 ?
## Output 10 to 100 nM

## Input Which EC50 is reported with human GLP-1R receptor (Homo sapiens, UniProt P43220) for this entry: O=C(O)c1cc(OCF)c2nc(CN3CCC(c4cccc(OCc5ccc(Cl)cc5F)n4)CC3)n(CF)c2c1 ?
## Output 10 to 100 nM

More entries:
## Input Which EC50 is reported with human GLP-1R receptor (Homo sapiens, UniProt P43220) for this entry: CNC(=O)c1cc(OC)c2nc(CN3CCC(c4cccc(OCc5ccc(Cl)cc5F)n4)CC3)n(C)c2c1 ?
## Output > 1000 nM

## Input Which EC50 is reported with human GLP-1R receptor (Homo sapiens, UniProt P43220) for this entry: COc1cc(C(=O)O)cc2c1nc([C@@H](C)N1CCC(c3cccc4c3O[C@@](C)(c3ccc(Cl)cn3)O4)CC1)n2C ?
## Output > 1000 nM

The origin of these recorded values is patent US20240368120A1.
